# System: 616215-338-R-J1-PDC complex spheroid viability
# ASSAY_COMMENT: Anticancer human tumor 616215-338-R-J1-PDC patient-derived colon adenocarcinoma cell line growth inhibition [POLQ]
# TEST_SETTINGS: second compound 0.316 µM; first compound 0.001 µM; stronger effect = lower value
viability, T/C values by entry
MEASURE: viability, T/C

compound="Cn1ncnc1[C@H]1c2n[nH]c(=O)c3cc(F)cc(c23)N[C@@H]1c1ccc(F)cc1 + COC1C(OC(N)=O)C(O)C(Oc2ccc3c(O)c(NC(=O)c4ccc(O)c(CC=C(C)C)c4)c(=O)oc3c2C)OC1(C)C" measure="viability, T/C" observed=106%
compound="CC[C@@]1(O)C(=O)OCc2c1cc1n(c2=O)Cc2cc3c(CN(C)C)c(O)ccc3nc2-1 + COC1C(OC(N)=O)C(O)C(Oc2ccc3c(O)c(NC(=O)c4ccc(O)c(CC=C(C)C)c4)c(=O)oc3c2C)OC1(C)C" measure="viability, T/C" observed=93.5%
compound="Cn1ncnc1[C@H]1c2n[nH]c(=O)c3cc(F)cc(c23)N[C@@H]1c1ccc(F)cc1 + Cc1cccc(N(C)C(=O)C2C(O)CCN2c2nc(C)cc(C(F)(F)F)c2C#N)c1" measure="viability, T/C" observed=104%

====

Catalogue of viability, T/C readings, one per entry.
# Tested on: 616215-338-R-J1-PDC complex spheroid viability
# ASSAY_COMMENT: Anticancer human tumor 616215-338-R-J1-PDC cell line growth inhibition [POLQ];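 also: spheroids exposed to compounds for one week before readout; percent viability relative to DMSO vehicle wells taken as 100%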
# TEST_SETTINGS: second compound 0.1 µM; first compound 0.1 µM; stronger effect = lower value
MEASURE: viability, T/C (%)

compound="CNCc1ccc(-c2[nH]c3cc(F)cc4c3c2CCNC4=O)cc1 + Cc1cccc(N(C)C(=O)C2C(O)CCN2c2nc(C)cc(C(F)(F)F)c2C#N)c1" tgt="616215-338-R-J1-PDC complex spheroid viability" measure="viability, T/C" observed=97.7
compound="CCc1c2c(nc3ccc(O)cc13)-c1cc3c(c(=O)n1C2)COC(=O)[C@]3(O)CC + Nc1ccc(C#CCN(C(=O)Cc2ncc(C(F)(F)F)cc2C(F)(F)F)c2ccc(F)cc2)nn1" tgt="616215-338-R-J1-PDC complex spheroid viability" measure="viability, T/C" observed=32.2
compound="O=C(c1cc(Cc2n[nH]c(=O)c3ccccc23)ccc1F)N1CCN(C(=O)C2CC2)CC1 + Nc1ccc(C#CCN(C(=O)Cc2ncc(C(F)(F)F)cc2C(F)(F)F)c2ccc(F)cc2)nn1" tgt="616215-338-R-J1-PDC complex spheroid viability" measure="viability, T/C" observed=94.7

====

# viability, T/C values compiled below
# System: 616215-338-R-J1-PDC complex spheroid viability
# ASSAY_COMMENT: Anticancer human tumor 616215-338-R-J1-PDC cell line growth inhibition [POLQ];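 also: spheroids exposed to compounds for one week before readout; percent viability relative to DMSO vehicle wells taken as 100%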
# TEST_SETTINGS: second compound 0.0316 µM; first compound 0.1 µM; stronger effect = lower value
MEASURE: viability, T/C (%)

compound="CCc1cc2c(N3CCc4c(cc(Cn5ccnc5)cc4-c4cn(C)nc4C(F)(F)F)C3=O)ccnc2c(OC)n1 + COC1C(OC(N)=O)C(O)C(Oc2ccc3c(O)c(NC(=O)c4ccc(O)c(CC=C(C)C)c4)c(=O)oc3c2C)OC1(C)C" measure="viability, T/C" unit_symbol=% observed=108
compound="CC1COCCN1c1cc(C2(O)CC3CCC(C2)O3)c2cnn(-c3ccn[nH]3)c2n1 (stereo not drawn) + Nc1ccc(C#CCN(C(=O)Cc2ncc(C(F)(F)F)cc2C(F)(F)F)c2ccc(F)cc2)nn1" measure="viability, T/C" unit_symbol=% observed=67.6
compound="CCc1cc2c(N3CCc4c(cc(Cn5ccnc5)cc4-c4cn(C)nc4C(F)(F)F)C3=O)cc(C)nc2c(OC)n1 + COC1C(OC(N)=O)C(O)C(Oc2ccc3c(O)c(NC(=O)c4ccc(O)c(CC=C(C)C)c4)c(=O)oc3c2C)OC1(C)C" measure="viability, T/C" unit_symbol=% observed=109
compound="COc1ccc([C@@H](O)c2cc(-c3ncnc4cc(N5CCOCC5)ccc34)c(F)cc2Cl)nn1 + COC1C(OC(N)=O)C(O)C(Oc2ccc3c(O)c(NC(=O)c4ccc(O)c(CC=C(C)C)c4)c(=O)oc3c2C)OC1(C)C" measure="viability, T/C" unit_symbol=% observed=105
compound="CC1COCCN1c1cc(C2(O)CC3CCC(C2)O3)c2cnn(-c3ccn[nH]3)c2n1 (stereo not drawn) + COC1C(OC(N)=O)C(O)C(Oc2ccc3c(O)c(NC(=O)c4ccc(O)c(CC=C(C)C)c4)c(=O)oc3c2C)OC1(C)C" measure="viability, T/C" unit_symbol=% observed=91.5
compound="C#Cc1c(F)ccc2cc(O)cc(-c3ncc4c(N5CC6CCC(C5)N6)nc(OCC56CCCN5CC(F)C6)nc4c3F)c12 (stereo not drawn) + Cc1cccc(N(C)C(=O)C2C(O)CCN2c2nc(C)cc(C(F)(F)F)c2C#N)c1" measure="viability, T/C" unit_symbol=% observed=109
compound="C#Cc1c(F)ccc2cc(O)cc(-c3ncc4c(N5CC6CCC(C5)N6)nc(OCC56CCCN5CC(F)C6)nc4c3F)c12 (stereo not drawn) + COC1C(OC(N)=O)C(O)C(Oc2ccc3c(O)c(NC(=O)c4ccc(O)c(CC=C(C)C)c4)c(=O)oc3c2C)OC1(C)C" measure="viability, T/C" unit_symbol=% observed=109
compound="O=C(c1cc(Cc2n[nH]c(=O)c3ccccc23)ccc1F)N1CCN(C(=O)C2CC2)CC1 + Cc1cccc(N(C)C(=O)C2C(O)CCN2c2nc(C)cc(C(F)(F)F)c2C#N)c1" measure="viability, T/C" unit_symbol=% observed=93.8

Origin of the recorded values: PubChem BioAssay AID1963843
